Each item that follows carries a reported Ki.
- Study target: Human Recombinant Matriptase 2 (Homo sapiens)
- Construct: made in house
- Sequence (Q8IU80 1-811): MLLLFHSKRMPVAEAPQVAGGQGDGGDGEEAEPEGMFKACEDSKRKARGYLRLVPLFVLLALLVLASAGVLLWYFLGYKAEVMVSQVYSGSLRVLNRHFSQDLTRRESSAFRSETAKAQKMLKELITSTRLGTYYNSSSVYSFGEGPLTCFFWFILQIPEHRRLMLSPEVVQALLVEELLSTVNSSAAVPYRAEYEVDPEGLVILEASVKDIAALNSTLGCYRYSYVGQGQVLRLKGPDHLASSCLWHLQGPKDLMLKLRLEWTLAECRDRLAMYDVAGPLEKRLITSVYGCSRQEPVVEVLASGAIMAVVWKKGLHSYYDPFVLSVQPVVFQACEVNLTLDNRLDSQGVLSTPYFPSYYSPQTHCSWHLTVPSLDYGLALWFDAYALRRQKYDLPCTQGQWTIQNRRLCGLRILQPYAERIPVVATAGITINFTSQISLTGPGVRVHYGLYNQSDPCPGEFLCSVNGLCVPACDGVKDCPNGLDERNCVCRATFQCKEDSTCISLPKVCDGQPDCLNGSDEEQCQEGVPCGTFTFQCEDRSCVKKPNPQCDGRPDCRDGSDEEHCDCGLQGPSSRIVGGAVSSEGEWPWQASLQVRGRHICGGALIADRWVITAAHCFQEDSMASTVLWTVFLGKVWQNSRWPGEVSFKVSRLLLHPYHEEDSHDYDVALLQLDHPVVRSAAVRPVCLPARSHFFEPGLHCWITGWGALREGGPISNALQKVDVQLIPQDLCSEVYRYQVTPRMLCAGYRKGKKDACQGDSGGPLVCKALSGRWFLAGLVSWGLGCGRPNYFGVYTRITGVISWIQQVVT
- Assay info: Matriptase 2 inhibition, fluorescence based assay (Method I)
- Format: biochemical
- Measurement parameters: Table B; Human Recombinant Matriptase 2, 3.5 nM enzyme, 62 μM substrate, 30 mins preincubation; read-out: Mean Ki

Compound	Ki
Cc1cccc(C)c1CS(=O)(=O)Nc1cc2c(c(Cn3c(C(=O)OCc4cncn4C(C)(C)C)cc4ccc(CN)nc43)c1)CCCC2	100 to 500 nM

Per the records, this compound ( CN1CCC(COC(=O)c2cc3ccc(CN)nc3n2Cc2cccn3nccc23)CC1 ) has Ki equal to > 3000 nM

Per the records, this compound ( CN1CCC(CCOC(=O)c2cc3ccc(CN)nc3n2Cc2cc(NS(=O)(=O)Cc3ccccc3)cc3ccccc23)CC1=O (stereo not shown) ) has Ki equal to ≤ 100 nM

Per the records, this compound ( CN(C)c1ccc(NC(=O)c2cc3ccc(CN)nc3n2Cc2cc(NS(=O)(=O)Cc3ccccc3)cc3ccccc23)cc1 ) has Ki equal to 100 to 500 nM

Per the records, this compound ( NCc1ccc2cc(C(=O)Nc3ccc(N)cc3)n(Cc3cc(NS(=O)(=O)Cc4ccccc4)cc4ccccc34)c2n1 ) has Ki equal to 100 to 500 nM

Per the records, this compound ( Cc1cccc(C)c1CS(=O)(=O)Nc1cc2c(c(Cn3c(C(=O)OCc4nccn4C)cc4ccc(CN)nc43)c1)CCCC2 ) has Ki equal to 100 to 500 nM

Per the records, this compound ( CN(C)c1ccc(COC(=O)c2cc3ccc(CN)nc3n2Cc2cc(NS(=O)(=O)Cc3ccccc3)cc3ccccc23)cc1 ) has Ki equal to 100 to 500 nM

---

Each item that follows carries a reported Ki.
- Study target: Human Recombinant Matriptase 2 (Homo sapiens, UniProt Q8IU80)
- Construct: made in house
- Assay info: Matriptase 2 inhibition, fluorescence based assay (Method I)
- Type: biochemical
- Measurement parameters: Table A; Ki of Matriptase-2; read-out: Mat-2 Ki

Look over these answered cases.
Mol	Ki
NCc1ccc2cc(C(=O)OCc3ccccc3)n(Cc3cc(NS(=O)(=O)Cc4ccccc4)cc4ccccc34)c2n1	500 to 3000 nM
Cc1oc(=O)oc1COC(=O)c1cc2ccc(CN)nc2n1Cc1cc(NS(=O)(=O)Cc2ccccc2)cc2ccccc12	100 to 500 nM
NCc1ccc2cc(C(=O)OCCN3CCNCC3)n(Cc3cc(NS(=O)(=O)Cc4ccsc4)cc4ccccc34)c2n1	≤ 100 nM
CC(=O)N(C)CCOC(=O)c1cc2ccc(CN)nc2n1Cc1cc(NS(=O)(=O)Cc2ccccc2)cc2ccccc12	100 to 500 nM
NCc1ccc2cc(C(=O)OCc3cncn3CC(F)(F)F)n(Cc3cc(NS(=O)(=O)Cc4ccccc4)cc4ccccc34)c2n1	100 to 500 nM

Per the records, this compound ( NCc1ccc2cc(C(=O)OCCN3CCOCC3)n(Cc3cc(NS(=O)(=O)Cc4ccsc4)cc4ccccc34)c2n1 ) has Ki equal to ≤ 100 nM

Per the records, this compound ( NCc1ccc2cc(C(=O)OCC3CCN(CC(F)F)CC3)n(Cc3cc(NS(=O)(=O)Cc4ccccc4)cc4ccccc34)c2n1 ) has Ki equal to 100 to 500 nM

---

- Study target: Human Recombinant Matriptase 2 (Homo sapiens, UniProt Q8IU80)
- Construct: made in house
- Assay info: Matriptase 2 inhibition, fluorescence based assay (Method I)
- Type: biochemical
- Measurement parameters: Table A; Ki of Matriptase-2 given as class symbols; read-out: Mat-2 Ki
Metric name: Ki

Look over these answered cases.
Compound	Ki
COCCN1CCN(CCS(=O)(=O)Nc2cc(Cn3c(C(=O)O)cc4ccc(CN)cc43)c3ccccc3c2)CC1	100 to 500 nM
CN1CCC(COC(=O)c2cc3ccc(CN)nc3n2Cc2cc(NS(=O)(=O)CC[C@H]3CCCN3)cc3ccccc23)CC1	500 to 3000 nM
NCc1ccc2cc(C(=O)O)n(Cc3cc(NS(=O)(=O)C4CCOCC4)cc4ccccc34)c2n1	100 to 500 nM
NCc1ccc2cc(-c3noc(=O)[nH]3)n(Cc3cc(NS(=O)(=O)Cc4ccccc4)cc4ccccc34)c2n1	100 to 500 nM
NCc1ccc2cc(C(=O)O)n(Cc3cc(NS(=O)(=O)Cc4ccccc4)cc4cccc(O)c34)c2n1	100 to 500 nM
Cn1cc(CS(=O)(=O)Nc2cc(Cn3c(C(=O)O)cc4ccc(CN)nc43)c3ccccc3c2)cn1	100 to 500 nM
CCN1C[C@@H](S(=O)(=O)Nc2cc(Cn3c(C(=O)O)cc4ccc(CN)nc43)c3ccccc3c2)CC1=O (racemic)	500 to 3000 nM
CN1CCC[C@H]1CCOC(=O)Nc1cc(Cn2c(C(=O)O)cc3ccc(CN)nc32)c2ccccc2c1	100 to 500 nM
NCc1ccc2cc(C(=O)O)n(Cc3cc(NS(=O)(=O)Cc4c(F)cccc4F)cc4ccccc34)c2n1	100 to 500 nM
COCCN1CCN(CCS(=O)(=O)Nc2cc(Cn3c(C(=O)O)cc4ccc(CN)nc43)c3ccccc3c2)CC1	100 to 500 nM

Per the records, this compound ( Cn1ccnc1COC(=O)c1cc2ccc(CN)cc2n1Cc1cc(NS(=O)(=O)Cc2ccsc2)cc2ccccc12 ) has Ki equal to ≤ 100 nM

Per the records, this compound ( NCc1ccc2cc(C(=O)O)n(Cc3cc(NC(=O)N4CCC(C(F)(F)F)CC4)cc4ccccc34)c2n1 ) has Ki equal to 500 to 3000 nM

Per the records, this compound ( C[C@@H]1C[C@H](C)CN(C(=O)Nc2cc(Cn3c(C(=O)O)cc4ccc(CN)nc43)c3ccccc3c2)C1 ) has Ki equal to 500 to 3000 nM

Per the records, this compound ( NCc1ccc2cc(C(=O)O)n(Cc3cc(NS(=O)(=O)C[C@H]4CNCCO4)cc4ccccc34)c2c1 (racemic) ) has Ki equal to 100 to 500 nM

---

Each item that follows carries a reported Ki.
- Study target: Human Recombinant Matriptase 2 (Homo sapiens)
- Construct: made in house
- Assay info: Matriptase 2 inhibition, fluorescence based assay (Method I)
- Format: biochemical
- Measurement parameters: Table A; Ki of Matriptase-2, class symbols; read-out: Mat-2 Ki

Molecule	Ki
NCc1ccc2cc(-c3nnn[nH]3)n(Cc3cc(NS(=O)(=O)CC[C@@H]4CCCN4)cc4ccccc34)c2c1	100 to 500 nM

Query molecule follows.
Per the records, this molecule ( CN1CCCC1COC(=O)Nc1cc(Cn2c(C(=O)O)cc3ccc(CN)cc32)c2ccccc2c1 (racemic) ) has Ki equal to 500 to 3000 nM

---

- Study target: Human Recombinant Matriptase 2 (Homo sapiens, UniProt Q8IU80)
- Construct: made in house
- Assay info: Matriptase 2 inhibition, fluorescence based assay (Method I)
- Format: biochemical
- Measurement parameters: Table A; Ki of Matriptase-2; read-out: Mat-2 Ki
Each item that follows carries a reported Ki.

Look over these answered cases.
Compound	Result
C[C@@H](c1ccccc1)S(=O)(=O)Nc1cc(Cn2c(C(=O)O)cc3ccc(CN)nc32)c2ccccc2c1 (racemic) [Compound 73]	≤ 100 nM
NCc1ccc2cc(C(=O)OCCn3cccc3)n(Cc3cc(NS(=O)(=O)Cc4ccccc4)cc4ccccc34)c2n1 [Compound 114]	500 to 3000 nM
CC(C)OC(=O)c1cc2ccc(CN)nc2n1Cc1cc(NS(=O)(=O)Cc2ccccc2)cc2ccccc12 [Compound 112]	500 to 3000 nM
Cn1cncc1COC(=O)c1cc2ccc(CN)nc2n1Cc1cc(NS(=O)(=O)Cc2ccsc2)cc2ccccc12 [Compound 155]	≤ 100 nM
NCc1ccc2cc(C(=O)O)n(Cc3cc(NS(=O)(=O)[C@H](F)c4ccccc4)cc4ccccc34)c2n1 (racemic) [Compound 98]	100 to 500 nM

Query compound follows.
Per the records, this compound ( CC(C)(C)n1nccc1COC(=O)c1cc2ccc(CN)nc2n1Cc1cc(NS(=O)(=O)Cc2ccccc2)cc2ccccc12 [Compound 110] ) has Ki equal to 100 to 500 nM
